- System: M. morganii IFO 3848
- PROCEDURE SUMMARY: MIC on standard strains, standard method of Japan Society of Chemotherapy
- Format: cell-based
- COND: Morganella morganii, IFO3848
OUTCOME MEASURE: MIC
Provide the measurement as a number trailed by its unit.

Below: 3 molecules and their reported MIC.
NC(=NO)c1ccc[n+](CC2=C(C(=O)[O-])N3C(=O)[C@@H](NC(=O)/C(=N\O)c4csc(N)n4)[C@H]3SC2)c1 0.2 µg/mL
Nc1nc(/C(=N/O)C(=O)N[C@@H]2C(=O)N3C(C(=O)[O-])=C(C[n+]4ccc(-c5nsc(N)n5)cc4)CS[C@H]23)cs1 0.05 µg/mL
Nc1nc(/C(=N/O)C(=O)N[C@@H]2C(=O)N3C(C(=O)[O-])=C(C[n+]4cccc(-c5ncno5)c4)CS[C@H]23)ns1 3.13 µg/mL

Here are 3 molecules. What values of MIC were reported for them?
1. Nc1nc(/C(=N/O)C(=O)N[C@@H]2C(=O)N3C(C(=O)[O-])=C(C[n+]4cccc(-c5ncno5)c4)CS[C@H]23)cs1
2. Nc1nc(/C(=N/O)C(=O)N[C@@H]2C(=O)N3C(C(=O)[O-])=C(C[n+]4cccc(-c5nsc(N)n5)c4)CS[C@H]23)cs1
3. Nc1nc(-c2cc[n+](CC3=C(C(=O)[O-])N4C(=O)[C@@H](NC(=O)/C(=N\O)c5csc(N)n5)[C@H]4SC3)cc2)n[nH]1

1: 0.39 µg/mL; 2: 0.1 µg/mL; 3: 0.05 µg/mL

----------
- System: S. marcescens IAM 1184
- PROCEDURE SUMMARY: MIC on standard strains, standard method of Japan Society of Chemotherapy
- Assay type: cell-based
- COND: Serratia marcescens, IAM1184, S. marcescens IAM 1184; read-out: MIC
Provide the reported MIC of each item.
Numbers only, in µg/mL.

Here is how some molecules turned out for MIC.
MOLECULE	OUTCOME MEASURE	VALUE REPORTED
CN(C)CCn1nnnc1SCC1=C(C(=O)O)N2C(=O)[C@@H](NC(=O)Cc3csc(N)n3)[C@H]2SC1 [CTM, cefotiam, reference compound]	MIC	6.25
NC(=NO)c1ccc[n+](CC2=C(C(=O)[O-])N3C(=O)[C@@H](NC(=O)/C(=N\O)c4csc(N)n4)[C@H]3SC2)c1	MIC	0.2

Entry Nc1nc(/C(=N/O)C(=O)N[C@@H]2C(=O)N3C(C(=O)[O-])=C(C[n+]4cccc(-c5nsc(N)n5)c4)CS[C@H]23)cs1 has what MIC?
0.78

----------
Field: log10(MIC). Provide a value for each of the compounds that follow.
- Tested on: E. coli NHIJ JC-2
- PROCEDURE SUMMARY: MIC on standard strains, standard method of Japan Society of Chemotherapy
- Assay type: cell-based
- COND: Escherichia coli, NHIJJC2
# values: log10(MIC), units µg/mL

Below, each entry is followed by its recorded log10(MIC) result.
COMPOUND	log10(MIC)
CO[C@@]1(NC(=O)CSC(F)F)C(=O)N2C(C(=O)O)=C(CSc3nnnn3CCO)CO[C@@H]21 [FMOX, flomoxef, reference compound]	-1.00
Nc1nc(-c2cc[n+](CC3=C(C(=O)[O-])N4C(=O)[C@@H](NC(=O)/C(=N\O)c5csc(N)n5)[C@H]4SC3)cc2)no1	-0.70
Nc1nc(/C(=N/O)C(=O)N[C@@H]2C(=O)N3C(C(=O)[O-])=C(C[n+]4ccc(-c5ncno5)cc4)CS[C@H]23)cs1	-0.41
NC(=NO)c1ccc[n+](CC2=C(C(=O)[O-])N3C(=O)[C@@H](NC(=O)/C(=N\O)c4csc(N)n4)[C@H]3SC2)c1	-0.41
Nc1nc(-c2ccc[n+](CC3=C(C(=O)[O-])N4C(=O)[C@@H](NC(=O)/C(=N\O)c5csc(N)n5)[C@H]4SC3)c2)no1	-0.41
Nc1nc(/C(=N/O)C(=O)N[C@@H]2C(=O)N3C(C(=O)[O-])=C(C[n+]4ccc(-c5ncon5)cc4)CS[C@H]23)cs1	-0.41
Nc1nc(/C(=N/O)C(=O)N[C@@H]2C(=O)N3C(C(=O)[O-])=C(C[n+]4ccc(-c5ncno5)cc4)CS[C@H]23)ns1	-0.11
Nc1nc(/C(=N/O)C(=O)N[C@@H]2C(=O)N3C(C(=O)[O-])=C(C[n+]4cccc(-c5ncno5)c4)CS[C@H]23)cs1	-0.11
CN(C)CCn1nnnc1SCC1=C(C(=O)O)N2C(=O)[C@@H](NC(=O)Cc3csc(N)n3)[C@H]2SC1 [CTM, cefotiam, reference compound]	-0.70
Nc1nc(/C(=N/O)C(=O)N[C@@H]2C(=O)N3C(C(=O)[O-])=C(C[n+]4cccc(-c5ncno5)c4)CS[C@H]23)ns1	0.80

Provide log10(MIC) values for the following items, in order.
1. Nc1nc(-c2cc[n+](CC3=C(C(=O)[O-])N4C(=O)[C@@H](NC(=O)/C(=N\O)c5csc(N)n5)[C@H]4SC3)cc2)n[nH]1
2. NC(=O)Cc1ccc[n+](CC2=C(C(=O)[O-])N3C(=O)[C@@H](NC(=O)/C(=N\O)c4nsc(N)n4)[C@H]3SC2)c1
3. Nc1nnc(-c2cc[n+](CC3=C(C(=O)[O-])N4C(=O)[C@@H](NC(=O)/C(=N\O)c5csc(N)n5)[C@H]4SC3)cc2)o1
4. Nc1nc(/C(=N/O)C(=O)N[C@@H]2C(=O)N3C(C(=O)[O-])=C(C[n+]4cccc(-c5nsc(N)n5)c4)CS[C@H]23)cs1
5. NC(=O)Nc1ccc[n+](CC2=C(C(=O)[O-])N3C(=O)[C@@H](NC(=O)/C(=N\O)c4nsc(N)n4)[C@H]3SC2)c1

1. -1.00
2. 0.19
3. -0.70
4. -0.41
5. -0.11
